meta.source: PubChem BioAssay AID2061304

- experiment: Identification of antibody-drug conjugate (ADC) payloads which are substrates of ATP-binding cassette drug efflux transporters: ABCB1-HeLa-KB-8-5-11 cell line
- statedConditions: KB-8-5-11 (P-gp overexpressing HeLa) viability, CellTiter-Glo, 48 h; series mostly up to 31.4 µM
Results filed as inconclusive are left out. Calls of active or inactive are those of the source. Calls come from the whole dose curve; as a rule, active = well fitted inhibition curve with a large enough effect; inconclusive = small, poorly fitted or top-dose-only effect; inactive = flat fitted curve, though single readings scatter.
quantityKind: Potency

INSERT INTO results (molecule, quantitykind, reportedresult) VALUES
  ('COC(=O)c1cc2c3c(cc(O)c2[nH]1)N(C(=O)c1cc2cc(OC)c(OC)c(OC)c2[nH]1)CC3CCl (stereo not given)', 'Potency', '0.6 nM (active)'),
  ('CCN[C@H]1CO[C@@H](O[C@H]2[C@H](O[C@H]3C#C/C=C\C#C[C@]4(O)CC(=O)C(NC(=O)OC)=C3/C4=C\CSSSC)O[C@H](C)[C@@H](NO[C@H]3C[C@H](O)[C@H](SC(=O)c4c(C)c(I)c(O[C@@H]5O[C@@H](C)[C@H](O)[C@@H](OC)[C@H]5O)c(OC)c4OC)[C@@H](C)O3)[C@@H]2O)C[C@@H]1OC', 'Potency', '420 nM (active)'),
  ('CC[C@]1(O)CC2CN(CCc3c([nH]c4ccccc34)[C@@](C(=O)OC)(c3cc4c(cc3OC)N(C)[C@H]3[C@@](O)(C(=O)OC)[C@H](OC(C)=O)[C@]5(CC)C=CCN6CC[C@]43[C@@H]65)C2)C1 (stereo not given in full)', 'Potency', '298 nM (active)'),
  ('COc1cccc2c1C(=O)c1c(O)c3c(c(O)c1C2=O)C[C@@](O)(C(=O)CO)C[C@@H]3O[C@H]1C[C@H]2[C@H](O[C@@H]3[C@@H](OC)OCCN32)[C@H](C)O1', 'Potency', '0.2 nM (active)');

Now consider the entry below.
Per the records, this molecule ( CN(C)CCOc1ccc2[nH]c(C(=O)N3C[C@@H](CCl)c4c3cc(O)c3ccccc43)cc2c1 ) has Potency equal to 0.7 nM (active)

---

# Lookup of reported Potency keyed by entry
- experiment: Identification of antibody-drug conjugate (ADC) payloads which are substrates of ATP-binding cassette drug efflux transporters: ABCB1-HeLa-KB-8-5-11 cell line
- statedConditions: KB-8-5-11 (P-gp overexpressing HeLa) viability, CellTiter-Glo, 48 h; series mostly up to 31.4 µM
Inconclusive results are not listed. Active and inactive are the calls of the source. Calls follow the shape of the dose curve; as a rule, active = well fitted inhibition curve with a large enough effect; inconclusive = small, poorly fitted or top-dose-only effect; inactive = flat fitted curve, though single readings scatter. Square brackets hold non-standard residues; d marks the D form. Peptide text beside a SMILES is read from it. Dolaproine = CO[C@@H]([C@@H]1CCCN1)[C@@H](C)C(=O)O; Dil = CC[C@H](C)[C@H](NC)[C@@H](CC(=O)O)OC; NMeV = CN[C@H](C(=O)O)C(C)C

INSERT INTO measurements (compound, quantitykind, reportedresult) VALUES
  ('CC[C@H](C)[C@@H]([C@@H](CC(=O)N1CCC[C@H]1[C@H](OC)[C@@H](C)C(=O)N[C@@H](Cc1ccccc1)C(=O)O)OC)N(C)C(=O)[C@@H](NC(=O)[C@@H](NC)C(C)C)C(C)C (H-[NMeV]V[Dil][Dolaproine]F-OH)', 'Potency', '0.265 µM (active)');

Now consider the entry below.
Per the records, this compound ( CC[C@H](C)[C@@H]([C@H](N)CC(=O)N1CCC[C@H]1[C@H](OC)[C@@H](C)C(=O)N[C@@H](Cc1ccccc1)c1nccs1)N(C)C(=O)[C@@H](NC(=O)[C@H](C(C)C)N(C)C)C(C)C ) has Potency equal to 0.0067 µM (active)
